# measurement-protocol: Water solubility
# Format: physicochemical

[
  {
    "compound": "CC(=O)NC1C(OC2C(CO)OC(OC3C(CO)OC(Oc4ccc(N)cc4)C(O)C3O)C(O)C2OC2(C(=O)O)CC(O)C(NC(C)=O)C([C@H](O)C(CO)OC3(C(=O)O)CC(O)C(NC(C)=O)C([C@H](O)[C@H](O)CO)O3)O2)OC(CO)C(O)C1O (stereo partly shown)",
    "solubility": "> 20 mg/mL"
  }
]
